System: A549
measurementDescription: In vitro cytotoxicity against the A-549 (human lung carcinoma) neoplastic cell line
Type: functional, cell-based
recordedConditions: a549
Please respond with reported IC50 for every item in the list.
Numbers only, in µM.

compound | IC50 [µM]
COc1cc([C@@H]2c3cc4c(cc3[C@H](OC(=O)C3CC5C=CC3C5)[C@H]3COC(=O)[C@H]23)OCO4)cc(OC)c1OC (some centres not stated) | 0.468

Now, please, on to the next compound.
IN: Tell me reported IC50 for COc1cc([C@@H]2c3cc4c(cc3C(OC(=O)C3CC5C=CC3C5)[C@H]3COC(=O)C23)OCO4)cc(OC)c1OC (single isomer, unassigned) , tested with A549.
OUT: 0.004

###

Test system: SK-MEL-28
measurementDescription: In vitro cytotoxicity against MEL-28 (human malign melanoma) neoplastic cell line
Format: functional, cell-based
recordedConditions: sk-mel-28
Please respond with reported pIC50 for every item in the list.
Numbers only, as −log10 of the molar value.

compound | pIC50
COc1cc([C@@H]2c3cc4c(cc3[C@H](OC(=O)C3CC5C=CC3C5)[C@H]3COC(=O)[C@H]23)OCO4)cc(OC)c1OC (some centres not stated) | 6.33

IN: Tell me reported pIC50 for COc1cc([C@@H]2c3cc4c(cc3C(OC(=O)C3CC5C=CC3C5)[C@H]3COC(=O)C23)OCO4)cc(OC)c1OC (single isomer, unassigned) , tested with SK-MEL-28.
OUT: 8.40

Sourced from ChEMBL document CHEMBL1147606
